molecular target: Ac-VQIINK-NH2 (SEQ ID NO: 23) (N-terminal acetyl (Ac); C-terminal amide (NH2)); assay: cell-based or functional assay
Square brackets hold non-standard residues; d marks the D form. Ends that are not written are not given here. dCit = NC(=O)NCCC[C@@H](N)C(=O)O
metric: VQIINK Inhibition IC50 (µm)
Answers are plain numbers, in µm.

Field: example entries. Status: answers known.
[dW][dR][dL][dR][dI][dH][dT] [wrlriht] :: 7.32
[dW][dK][dL][dK][dL][dR][dW][dW] [wklklrww] :: 1.76
[dF][dW][dL][dK][dL][dR][dW][dF] [fwlklrwf] :: 1.63
[dW][dQ][dL][dK][dV][dR][dW] [wqlkvrw] :: 0.97
[dL][dK][dI][dR][dI][dCit][dY] [lkirizy] :: 0.76
[dF][dW][dL][dR][dI][dH][dW][dF] [fwlrihwf] :: 4.42
[dF][dR][dL][dK][dL][dR][dF][dH] [frlklrfh] :: 1.8
[dF][dK][dL][dK][dL][dR][dW][dF] [fklklrwf] :: 2.2

Give measured VQIINK Inhibition IC50 for every item shown.
1. [dL][dK][dI][dR][dI][dH][dY][dA] [lkirihya]
2. [dW][dT][dL][dR][dI][dH][dW] [wtlrihw]
3. [dW][dA][dL][dR][dI][dH][dW] [walrihw]
4. [dW][dR][dL][dK][dV][dR][dW][dW] [wrlkvrww]
5. [dL][dK][dI][dR][dI][dH][dY][dE] [lkirihye]

1: 3.83; 2: 2.82; 3: 3.12; 4: 1.97; 5: 3.39

Entry source: patent US20200216495A1
